System: PC-3 prostate
Assay: NCI-60 one-dose screen, 48 h (100 = growth as untreated, 0 = no growth, -100 = all killed)
Details: 10 µM
This is part of a sample that, as a whole, favours compounds with a hit. Of some 83,000 tested, about 20% had one in any assay. The source made the active and inactive calls. Rule for the calls: active = growth percent below 10; inactive = the rest.
This listing pairs compounds with measured growth.
observable: growth

COc1ccccc1CNCCCN1C(=O)c2ccc3c4c(ccc(c24)C1=O)C(=O)N(CCCNCCNCCCN)C3=O    42.1% (inactive)
Cc1nc2sccn2c1-c1csc(Nc2cccc(Cl)c2C)n1    53.1% (inactive)
S=C(Cc1ccc(-c2ccccc2)cc1)N1CCOCC1    76.7% (inactive)
COc1ccc(C2C=C(c3ccc(Cl)cc3)N=C3SC=CN32)c(Br)c1 (configuration not stated)    45.2% (inactive)
COc1nc2c(c(=O)[nH]1)C(c1ccc(Oc3ccnc4cc(Cl)ccc34)c(OC)c1)C=C(c1cc(OC)c(OC)c(OC)c1)N2 (configuration not stated)    87.2% (inactive)
Nc1ncc(-c2ccc(C(F)(F)F)cc2)c(NC2CCCCCC2)n1    12% (inactive)
O=C(Cn1ccc(=O)[nH]c1=O)c1ccc([N+](=O)[O-])o1    85.8% (inactive)
COc1ccc2oc(=O)cc(C(c3ccc[nH]3)c3ccc[nH]3)c2c1    20.3% (inactive)
O=C/C=C/c1ccc([N+](=O)[O-])cc1Cl    86.6% (inactive)
COc1ccc(-c2[nH]ncc2/C=C/c2cc(C(F)(F)F)[nH]c(=O)n2)cc1    98.7% (inactive)
C#C[C@]1(O)CC[C@H]2[C@@H]3CC[C@H]4CC(F)(F)CC[C@]4(C)[C@H]3CC[C@@]21C    70.7% (inactive)
Cc1ccc(-c2cc(C(=O)Nc3ccc(S(=O)(=O)N4CCCCC4)cc3)[nH]n2)c(O)c1    51.8% (inactive)
O=C(/C=C/c1ccc(Cl)cc1)c1ccc(Br)cc1    97.4% (inactive)
N#Cc1c(-c2ccccc2)nc(SCC(=O)N2CCOCC2)[nH]c1=O    98.1% (inactive)
COc1ccc(-c2[nH]ncc2-c2cc(OC)c(OC)c(OC)c2)cc1    11.8% (inactive)
O=C(Nc1ccc(Oc2ccc(Nc3nc4ccccc4s3)cc2)cc1)Nc1ccc(Cl)c(Cl)c1    23.4% (inactive)
COc1ccc(/C=C2\CCC3C(CCCC34OCCO4)C2=O)cc1 (configuration not stated)    86.4% (inactive)
c1ccc(COCC[P+](c2ccccc2)(c2ccccc2)c2ccccc2)cc1    -4.87% (active)
C(=C\c1nc2ccccc2s1)/c1ccc(N2CCOCC2)s1    53.4% (inactive)
CC(C)C(C)C(N)C(=O)O (configuration not stated)    98.2% (inactive)
Cc1ccc(S(=O)(=O)Nc2cccc3[nH]c(C(F)(F)F)nc23)cc1    17.2% (inactive)
O=C(Nc1cccc(C(F)(F)F)c1)C(Cl)Cl    95.1% (inactive)

----------
System: A549/ATCC NSCLC
Experiment: NCI-60 one-dose screen, 48 h (100 = growth as untreated, 0 = no growth, -100 = all killed)
Settings: 10 µM
This is part of a sample that, as a whole, favours compounds with a hit. Of some 83,000 tested, about 20% had one in any assay.
This listing pairs compounds with measured growth.
observable: growth (%)

O=[N+]([O-])c1ccc(S(=O)(=O)OCCCCOS(=O)(=O)c2ccc([N+](=O)[O-])cc2)cc1    103
Clc1cc(Cl)c(OCCCCCCN2CCNCC2)c(Cl)c1    53.8
CCOC(=O)[C@@H]1[C@H](c2ccccc2)[C@H]([N+](=O)[O-])[C@H](c2cn(-c3ccccc3)nc2C)N1Cc1ccccc1    66.2
CCCCCCCCCCCCCC[n+]1ccccc1    -55.8
COc1ccc(C2CC(c3ccc(-c4ccccc4)cc3)=NN2c2ccc(S(N)(=O)=O)cc2)cc1 (centres undefined)    47.3
COc1ccc(-c2nc3sc(-c4ccccc4)c(-c4ccccc4)n3c2/C=C/c2ccc(F)cc2)cc1    83.8
COc1ccc(-c2n/c(=C\c3c(O)[nH]c4ccccc34)cc3c2=Nc2ccccc2-3)cc1    37.4
O=C(NCc1cn(Cc2cccc(Oc3ccccc3)c2)nn1)c1cccnc1Nc1ccccc1    50.6
Cc1ccc(-n2c(-c3cc4c([nH]c5ccccc54)c(-c4cccc(O)c4)n3)n[nH]c2=S)cc1    2.93

----------
System: PC-3 prostate
Test: NCI-60 one-dose screen, 48 h
Settings: 10 µM
The panel holds about 83,000 compounds, 20% with a hit somewhere; the sample as a whole holds those more often. Active and inactive are the calls of the source. How the source made its calls: active means growth percent below 10; inactive means the rest.
Classes used: active, inactive

Nc1c(CNCc2nnn(Cc3ccccc3)c2N)nnn1Cc1ccccc1    inactive
O=C(O)c1ccccc1C(=O)c1cccc2c(F)cccc12    inactive
O=C(OCC1OC(n2cc(C(F)(F)F)c(=O)[nH]c2=O)CC1OC(=O)c1ccc([N+](=O)[O-])cc1)c1ccc([N+](=O)[O-])cc1 (stereo not given)    inactive
COc1ccc(-n2nnc3c(sc4ccccc43)c2=O)cc1    inactive
CCOC(=S)Sc1ccc([N+](=O)[O-])cc1[N+](=O)[O-]    inactive
CC(C)c1ncc(CO)n1Cc1c(Cl)cccc1Cl    inactive
COc1ccc2c(c1)/C(=C/c1cc(OC)c(OC)c(OC)c1)C(=O)N2C    inactive
COc1cc(OC)cc(N2CCN(C(=O)Nc3nc4cc(F)ccc4nc3OC)CC2)c1    inactive
COc1cccc2c1O/C(=C\c1ncc([N+](=O)[O-])n1C)C2=O    active
OC(CNC1CCCC1)Cn1c2ccccc2c2ccccc21 (stereo not given)    inactive
COc1cc(NS(C)(=O)=O)ccc1Nc1c2ccc(Cl)cc2nc2c(OC)cccc12    inactive
NC1CCC(Nc2nc(NCc3ccc(-c4ccccc4O)nc3)c3ncn(C4CCCC4)c3n2)CC1 (stereo not given)    active
CNC(=O)c1cc(Oc2ccc(NC(=O)Nc3ccc(Cl)c(C(C)(C)C)c3)c(F)c2)ccn1    inactive
CCCCCCCCCCCCCC[n+]1ccc(C)cc1    active
CCOC(=O)CSC(=S)SCC(=O)OCC    inactive
COc1cc(/C=C/C(=O)c2cc(-c3ccccc3)ccc2O)cc(OC)c1OC    inactive
Cc1nn2c(/C=C3/C(=O)Nc4ccc(Cl)cc43)c(-c3ccccc3)nc2s1    inactive
Nc1nc2c(nnn2C2CC(O)C(CO)O2)c(=O)[nH]1 (stereo not given)    inactive
Nc1ncncc1-c1ccc(F)cc1    inactive
COc1ccc(-c2nsc3c2NC(=O)CC3c2ccc(Cl)cc2)cc1 (stereo not given)    inactive
CCCCCc1cc[n+](CC(=O)c2ccc(Cl)cc2)cc1    inactive
Cn1cnc([N+](=O)[O-])c1/C=C1\Oc2ccc(Cl)cc2C1=O    inactive
Clc1cc(Cl)c(Cl)c(-c2nc(-c3cccnc3)cs2)c1    inactive
Cc1nc(N)sc1Sc1nc2ccc(Cl)cc2c(=O)n1-c1ccc(Oc2ccccc2)cc1    inactive
CCCCCCCCCCCC(=O)NCCCN(C)C    inactive
O/N=C1\CCC2CCCCC2C1 (stereo not given)    inactive
CCc1ccc(Nc2cc(C)nc3nc(C)nn23)cc1    active
Clc1ccc(-c2nc(-c3cccs3)cn3ccnc23)cc1    inactive
CCCCNC(=O)Oc1ccc(/C(=C(\C)c2ccc(OC)cc2)c2ccc(OCCN3CCCCC3)cc2)cc1    inactive
O=[N+]([O-])c1ccc2c(c1)Cc1cc(I)ccc1-2    inactive
CC(=O)CS(C)(=O)=O    inactive
Cc1nc2cc(-n3c(-c4ccc(F)cc4)nc4ccccc4c3=O)ccc2n1Cc1ccccc1    active
O=S(=O)(NC1c2ccccc2Oc2ccccc21)c1ccccc1    inactive
CC(=O)N(O)c1ccc(/C=C/c2ccccc2)cc1    inactive
Cn1c([N+](=O)[O-])cnc1C=C1C(=O)c2ccccc2C1=O    inactive
Cc1ccc(NS(=O)(=O)c2ccccc2)c(NS(=O)(=O)c2ccccc2)c1    inactive
CCOC(=O)CNC(=O)Nc1ccc(Oc2ccc(NC(=O)NCC(=O)OCC)cc2)cc1    inactive
COc1ccc(C2CC(c3ccc(-c4ccccc4)cc3)=NN2c2ccc(S(N)(=O)=O)cc2)cc1 (stereo not given)    inactive
CC(Oc1ccc(Cl)cc1)c1ccccc1 (stereo not given)    inactive
CCN(CCCNC(=O)Cc1cc(=O)oc2cc(N(C)C)ccc12)CCNc1ccnc2cc(Cl)ccc12    inactive
Cc1ccc(Cl)cc1Nc1nc(C(F)(F)F)ccc1C(=O)N/N=C/c1c(Cl)cccc1Cl    active
Oc1ccccc1-c1nnc(Cn2c(Cc3cccc4ccccc34)nc3ccccc32)o1    inactive
CC(=O)Nc1nc(C)c(C(=O)N/N=C/c2cccn2C)s1    inactive
O=[N+]([O-])c1ccc(-c2nc(-c3ccccc3)c(-c3ccccc3)n2-c2ccccc2)cc1    active
N#Cc1c2c([nH]c(=O)c1C(N)=O)CCCCC2    inactive
